tested on: A498 renal; test: NCI tumour cell line growth inhibition, 48 h
MEASURED PARAMETER: TGI

Completed entries (count: 2):
Annotate the compound `CCC(=O)O[C@@H]([C@H](C)[C@H]1OC(CC)=C(C)C(=O)[C@@H]1C)[C@@H](C)C(=O)CC` with its measured TGI.
> 100 µM

Annotate the compound `S=C1C(=Nc2ccccc2)N(C2CCCCC2)C(=NC2CCCCC2)N1c1ccccc1` with its measured TGI.
> 100 µM

Shifting focus to the compound that follows.
Annotate the compound `S=c1ncc2n[nH]nc2[nH]1` with its measured TGI.
> 100 µM

* * *

Please provide measured TGI for the entries that follow.
system: KM12 colon; assay: NCI tumour cell line growth inhibition, 48 h

Annotate the molecule `Cc1cc(S(=O)(=O)O)ccc1N=Nc1c(O)ccc2ccccc12` with its measured TGI.
> 100 µM

Annotate the molecule CC(C)=CC1CC(=O)C1(C)Sc1ccccc1 (stereo not given) with its measured TGI.
> 100 µM

Annotate the molecule `CCn1c2ccccc2c2nnc(NCCCO)nc21` with its measured TGI.
> 100 µM

Annotate the molecule CN1CCC(SC2Cc3cc(Cl)ccc3Sc3ccccc32)CC1 (stereo not given) with its measured TGI.
23.2 µM

Shifting focus to the molecule that follows.
Annotate the molecule CC(C)=CCC/C(C)=C/CCC(C(=O)COCc1ccccc1)P1(=O)OC(C)(C)CN1C(C)(C)C (stereo not given) with its measured TGI.
> 100 µM

* * *

Please provide measured TGI for the entries that follow.
system: OVCAR-4 ovarian; assay: NCI tumour cell line growth inhibition, 48 h

Completed entries (count: 8):
Annotate the compound `O=C(CI)OCC(COC(=O)CI)OC(=O)CI` with its measured TGI.
4.3 µM

Annotate the compound `Cc1[nH]c(-c2ccccc2)c(O)c1C(=O)OC12CC3CC(CC(C3)C1)C2` with its measured TGI.
34.4 µM

Annotate the compound `CN(C)c1ccc(/C=C2\C[C@H]3[C@@H]4CCc5cc(OCCN6CCCC6)ccc5[C@H]4CC[C@]3(C)[C@H]2O)cc1` with its measured TGI.
> 58.8 µM

Annotate the compound `CS(=O)(=O)c1ccc(Oc2cc(F)cc(C#N)c2)c2c1[C@H](O)[C@H](F)[C@H]2F` with its measured TGI.
> 100 µM

Annotate the compound `CCOC(=O)c1ccc2c(c1)nc(-c1ccc(Cl)cc1)n2-c1cc(C(C)(C)C)[nH]n1` with its measured TGI.
> 100 µM

Annotate the compound `O=C1Nc2ccc(Cl)cc2C(=O)N2CCC[C@@H]12` with its measured TGI.
> 100 µM

Annotate the compound `COc1cc(Nc2c(C#N)[n+]([O-])c3ccccc3[n+]2[O-])cc(OC)c1OC` with its measured TGI.
> 100 µM

Annotate the compound `CCCCCCCCCCCC[C@@H](O)[C@H]1CC[C@H]([C@H](O)CCCC[C@H](O)CCCCC[C@@H](O)CC2=C[C@H](C)OC2=O)O1` with its measured TGI.
10.6 µM

Please give TGI, item by item, for the list that follows.
1. Cc1cc(C(=O)CBr)c(CN2C(=O)c3ccccc3C2=O)c(=O)n1C
2. c1ccc2nc3c(cc2c1)Sc1cc2ccccc2[n+]2c1N3CC2
3. COc1ccc(-c2nn(C(=O)NCCN(C)C)cc2-c2ccncc2)cc1Cl
4. O=C(/C=C/c1ccccc1F)c1ccc([N+](=O)[O-])cc1

> 100 µM
> 100 µM
> 100 µM
89.7 µM

Please give TGI, item by item, for the list that follows.
1. CCCCCCCCCCCCCCCCCC(=O)NCC(COP(=O)([O-])OCC[N+](C)(C)C)OC (centres undefined)
2. O=C(OCc1ccccc1)N1N=NC2C1C1CC(OCc3ccccc3)(OCc3ccccc3)C2O1 (centres undefined)
3. CC(=O)NNc1nc(C)c(C(=O)NNC(=O)C(=O)Nc2c(C)cccc2C(C)C)s1
4. CC(C)=CCC/C(C)=C/CCC(C(=O)COCc1ccccc1)P1(=O)OC(C)(C)CN1C(C)(C)C (centres undefined)

["13 µM", "> 100 µM", "> 100 µM", "81.2 µM"]

Please give TGI, item by item, for the list that follows.
1. CN[C@H](C)[C@@H](OC)c1ccccc1
2. CC[C@]1(O)CC2CN(CCCc3c([nH]c4ccccc34)[C@@](C(=O)OC)(c3cc4c(cc3OC)N(C)C3C45CCN4CC=C[C@](CC)(C45)C(OC(C)=O)[C@@]3(O)C(=O)OC)C2)C1 (some centres undefined)
3. OCCCc1n(Cc2ccc3ccccc3c2)c2ccccc2[n+]1Cc1ccc2ccccc2c1

1: > 100 µM; 2: > 10 µM; 3: 6.73 µM

* * *

Please provide measured TGI for the entries that follow.
system: NCI/ADR-RES ovarian; assay: NCI tumour cell line growth inhibition, 48 h

Completed entries (count: 5):
Annotate the compound `Nc1nc(N)c(-c2cccc(C(F)(F)F)c2)c(Cc2cccc(C(F)(F)F)c2)n1` with its measured TGI.
23.1 µM

Annotate the compound `COc1ccc(OC)c(C(=O)c2cccc(C(=O)c3cc(OC)ccc3OC)n2)c1` with its measured TGI.
> 100 µM

Annotate the compound CCCCCCCC/C=C(\Br)C(O)C(Br)Br (stereo not given) with its measured TGI.
57.2 µM

Annotate the compound `Nc1ncc(-c2ccc3ncnc(N4CCc5ccc(Cl)cc54)c3c2)cn1` with its measured TGI.
> 100 µM

Annotate the compound `COc1ccc(NC(=O)CC(=O)NN)cc1` with its measured TGI.
> 100 µM

Please give TGI, item by item, for the list that follows.
1. COc1oc(C(=O)NC2CCCCC2)c(-c2ccc(Cl)cc2)c1S(=O)(=O)c1ccccc1
2. COc1ccc(-n2c(N)c(C#N)c(C#N)c2-c2cccc([N+](=O)[O-])c2)cc1
3. CS(=O)(=O)Nc1ccc(Nc2c3ccccc3nc3cc([N+](=O)[O-])ccc23)cc1
4. OCCCc1n(Cc2ccc3ccccc3c2)c2ccccc2[n+]1Cc1ccc2ccccc2c1
5. NNC(=O)c1n[nH]n(N)c1=S

1. 8.42 µM
2. > 100 µM
3. 26.5 µM
4. > 100 µM
5. > 100 µM

Please give TGI, item by item, for the list that follows.
1. O=C1CSC(c2cccc([N+](=O)[O-])c2)N1c1ccc(-c2ccc(-n3c(-c4ccccc4)nc4ccccc4c3=O)cc2)cc1 (stereo not given)
2. Cc1nc2ccc(Nc3nc(Cl)nc(Nc4ccc(F)cc4)n3)cc2n1Cc1ccccc1
3. O=C(CC(C(=O)c1ccc(F)cc1)c1ccsc1)c1cccs1 (stereo not given)
4. O=c1ssc2c1Nc1c(ssc1=O)S2
5. CC(C)=CCC/C(C)=C/CCC(C(=O)COCc1ccccc1)P1(=O)OC(C)(C)CN1C(C)(C)C (stereo not given)
6. O=C(O)/C=C/C=C/c1ccc2c(c1)OCO2
7. COc1cc(-c2nc3nc(N4CCN(C)CC4)ccc3[nH]2)c(OC)c2[nH]c(CO)nc12
8. Cc1ccc(C2C(C(=O)C(C)(C)C)N2S(=O)(=O)c2ccc(C)cc2)cc1 (stereo not given)

1. > 100 µM
2. 18.5 µM
3. > 100 µM
4. 37.4 µM
5. > 100 µM
6. > 100 µM
7. > 100 µM
8. 75.9 µM

Please give TGI, item by item, for the list that follows.
1. Cn1c(-c2ccccc2)c2cc3nc4ccccc4nc3cc2c1-c1ccccc1
2. CCN(Cc1ccccc1F)c1ccc(CO)c(Cl)c1
3. CN(C)C(=S)/N=C1\SC(=Nc2ccccc2)C(=Nc2ccccc2)N1c1ccc([N+](=O)[O-])cc1
4. CC12OC(CC(O)C1O)n1c3ccccc3c3c4c(c5c6ccccc6n2c5c31)C(=O)N(CCN1CCCC1)C4=O (stereo not given)
5. CCCCCCCCCCOC1C(C(O)CNCCCN(C)C)OC2OC3(CCCCC3)OC21 (stereo not given)

> 100 µM
52.8 µM
> 100 µM
14.5 µM
8.87 µM

Please give TGI, item by item, for the list that follows.
1. N#CC12CC3=C(N=C1NC1=C(CCc4ccccc41)C2)c1ccccc1CC3 (stereo not given)
2. Cc1cc(S(=O)(=O)O)ccc1N=Nc1c(O)ccc2ccccc12
3. NC(=O)c1nnsc1N/N=C/c1ccc([N+](=O)[O-])cc1
4. CN(C)CCCNC(=O)c1c(-c2cccnc2)cnc2ccccc12
5. NC1CCCCC1
6. CC(C)CC(NC(=O)C(CSc1ccc([N+](=O)[O-])cc1)Cc1ccccc1)C(=O)Nc1ccccc1 (stereo not given)
7. COC1CC(C)(NC(C)=O)C2OC(c3ccccc3)OCC2O1 (stereo not given)
8. O=C(O)CCc1ccc(-c2ccccc2)[nH]1

1: 29.5 µM; 2: > 100 µM; 3: > 100 µM; 4: > 100 µM; 5: > 562 µM; 6: > 100 µM; 7: > 100 µM; 8: > 100 µM

* * *

Heads up, these compounds all have GI50 values measured for HCT-116 colon.

Completed entries (count: 5):
Annotate the compound `CS(=O)(=O)c1ccc(Oc2cc(F)cc(C#N)c2)c2c1[C@H](O)[C@H](F)[C@H]2F` with its measured GI50.
> 100000 nM

Annotate the compound `CCCCCCCCCCCC[C@@H](O)[C@H]1CC[C@H]([C@H](O)CCCC[C@H](O)CCCCC[C@@H](O)CC2=C[C@H](C)OC2=O)O1` with its measured GI50.
425 nM

Annotate the compound `COc1cc2cc(c1Cl)N(C)C(=O)C[C@H](OC(=O)[C@H](C)N(C)C(=O)CCS)C[C@]1(C)O[C@H]1[C@H](C)[C@@H]1C[C@@](O)(NC(=O)O1)[C@H](OC)/C=C/C=C(\C)C2` with its measured GI50.
< 5 nM

Annotate the compound `Cc1cc2c(cc1C)[n+](=O)c(C(=O)C(C)(C)C)c(C(F)(F)F)n2[O-]` with its measured GI50.
10600 nM

Annotate the compound `OCCCc1n(Cc2ccc3ccccc3c2)c2ccccc2[n+]1Cc1ccc2ccccc2c1` with its measured GI50.
1050 nM

Please give GI50, item by item, for the list that follows.
1. CS(=O)(=O)Nc1ccc(Nc2c3ccccc3nc3cc([N+](=O)[O-])ccc23)cc1
2. O=C(Cc1csc2nc(-c3ccc(Br)cc3)cn12)N/N=C/c1ccccc1

1: 1100 nM; 2: 9320 nM

Annotate the compound `O=C1c2ccccc2-c2c1c1ccc([N+](=O)[O-])cc1c(=O)n2CCCN1CCOCC1` with its measured GI50.
85.1 nM
